Kindly state inhibition for each of the entries shown.
Target: Serine/threonine-protein kinase 10 (Homo sapiens) (UniProt O94804)
Sequence (O94804 whole entry, looked up): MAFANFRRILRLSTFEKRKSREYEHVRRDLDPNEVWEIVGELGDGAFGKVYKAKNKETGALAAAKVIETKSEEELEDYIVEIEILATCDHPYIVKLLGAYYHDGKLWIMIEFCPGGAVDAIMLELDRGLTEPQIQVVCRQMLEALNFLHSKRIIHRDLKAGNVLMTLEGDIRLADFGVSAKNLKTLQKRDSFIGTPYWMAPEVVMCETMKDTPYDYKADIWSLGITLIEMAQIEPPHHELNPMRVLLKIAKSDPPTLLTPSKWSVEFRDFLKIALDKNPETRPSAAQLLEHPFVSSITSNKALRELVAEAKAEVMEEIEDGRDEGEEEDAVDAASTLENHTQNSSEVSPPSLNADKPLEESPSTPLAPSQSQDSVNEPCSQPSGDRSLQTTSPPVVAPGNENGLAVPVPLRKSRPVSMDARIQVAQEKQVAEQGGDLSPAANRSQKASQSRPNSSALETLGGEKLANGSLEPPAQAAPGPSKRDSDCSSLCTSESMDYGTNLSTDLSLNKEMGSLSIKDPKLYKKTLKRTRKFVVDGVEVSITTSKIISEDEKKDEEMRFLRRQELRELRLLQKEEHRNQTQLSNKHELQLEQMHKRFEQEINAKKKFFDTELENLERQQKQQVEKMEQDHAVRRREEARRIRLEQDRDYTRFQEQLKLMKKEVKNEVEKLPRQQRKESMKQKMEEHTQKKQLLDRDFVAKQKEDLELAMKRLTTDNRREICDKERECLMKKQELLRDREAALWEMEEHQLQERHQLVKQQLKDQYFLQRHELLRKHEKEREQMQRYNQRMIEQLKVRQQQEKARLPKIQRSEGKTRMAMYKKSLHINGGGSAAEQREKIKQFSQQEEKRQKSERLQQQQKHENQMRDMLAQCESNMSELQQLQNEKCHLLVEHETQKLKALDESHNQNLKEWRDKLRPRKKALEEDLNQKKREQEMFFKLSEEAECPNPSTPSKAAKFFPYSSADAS
Test: Inhibition of LOK (unknown origin) at 0.5 uM relative to control
A number alone suffices; assume %.

Problem: Short answer please: inhibition, Serine/threonine-protein kinase 10 (Homo sapiens) (UniProt O94804), entry CNC(=O)c1cc(Oc2ccc(NC(=O)c3n[nH]nc3-c3ccc(F)cc3)cc2)ccn1
Solution: 26

Problem: Record CNC(=O)c1cc(Oc2ccc(NC(=O)c3nc(NC)sc3-c3ccc(F)cc3)cc2)ccn1 : what is its inhibition with Serine/threonine-protein kinase 10 (Homo sapiens) (UniProt O94804)?
Solution: 50

Problem: Please tell me: inhibition of CNC(=O)c1cc(Oc2ccc(NC(=O)c3nc(SC)[nH]c3-c3ccc(F)cc3)cc2)ccn1 , system Serine/threonine-protein kinase 10 (Homo sapiens) (UniProt O94804)?
Solution: 93

Problem: Please provide the recorded inhibition for CNC(=O)c1cc(Oc2ccc(NC(=O)c3nc(SC)oc3-c3ccc(F)cc3)cc2F)ccn1 , tested on Serine/threonine-protein kinase 10 (Homo sapiens) (UniProt O94804).
Solution: 55

Problem: Under Serine/threonine-protein kinase 10 (Homo sapiens) (UniProt O94804): inhibition value of CNC(=O)c1cc(Oc2ccc(NC(=O)c3nc(C(F)(F)F)sc3-c3ccc(F)cc3)cc2)ccn1 ?
Solution: 58

Problem: What measured inhibition is associated with CSc1nc(C(=O)Nc2ccc(Oc3cc4cnn(C)c4cc3Br)cc2)c(-c2ccc(F)cc2)o1 on Serine/threonine-protein kinase 10 (Homo sapiens) (UniProt O94804)?
Solution: 36

Problem: Can you look up inhibition on Serine/threonine-protein kinase 10 (Homo sapiens) (UniProt O94804) for CNC(=O)c1cc(Oc2ccc(NC(=O)c3nc(SC)oc3-c3ccc(F)cc3)cc2)ccn1 ?
Solution: 66

Problem: Please state recorded inhibition (tested on Serine/threonine-protein kinase 10 (Homo sapiens) (UniProt O94804)) of CNC(=O)c1cc(Oc2ccc(NC(=O)c3nc(SC)n(CCN(C)C)c3-c3ccc(F)cc3)cc2)ccn1
Solution: 47
